Where do the numbers come from? From ChEMBL document CHEMBL2177026.

# IC50 values compiled below
Target system: UniProt P56817
Sequence (P56817 whole entry): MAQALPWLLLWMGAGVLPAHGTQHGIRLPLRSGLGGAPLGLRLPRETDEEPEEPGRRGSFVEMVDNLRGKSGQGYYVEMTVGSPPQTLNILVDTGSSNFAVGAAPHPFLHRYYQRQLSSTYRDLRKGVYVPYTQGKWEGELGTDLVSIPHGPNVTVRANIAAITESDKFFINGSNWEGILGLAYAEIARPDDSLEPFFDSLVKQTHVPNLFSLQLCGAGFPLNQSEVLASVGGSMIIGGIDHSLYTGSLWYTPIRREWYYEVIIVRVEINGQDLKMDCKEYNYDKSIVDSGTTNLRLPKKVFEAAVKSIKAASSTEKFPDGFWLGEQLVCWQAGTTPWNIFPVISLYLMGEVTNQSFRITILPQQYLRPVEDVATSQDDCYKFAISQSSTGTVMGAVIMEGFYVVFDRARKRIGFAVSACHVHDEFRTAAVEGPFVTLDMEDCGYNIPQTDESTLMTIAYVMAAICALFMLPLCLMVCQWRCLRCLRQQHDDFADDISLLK
Assay info: Inhibition of BACE1 in human KBV1 cells expressing APP 751 Swedish mutant assessed as inhibition of amyloid beta (1 to 40) production after overnight incubation by ELISA in presence of tariquidar
Format: cell-based
Answer with the value and then the unit.

COc1ccc(-c2noc(C)c2C(=O)/N=C(\N)NCc2cc(Cl)cc(Cl)c2)cc1: 3900 nM

Pending molecule:
Field IC50 (system: UniProt P56817) for entry COc1ccc(-c2nsc(C)c2C(=O)/N=C(\N)NCc2cc(Cl)c(NC(C)=O)c(Cl)c2)cc1 = 310 nM

---

Assay info: Plasma concentration in rat at 15 mg/kg, sc after 5 hrs by LC/MS/MS analysis
Format: ADME, organism-based
Parameters: dose 15 mg/kg, route subcutaneous
Readout kind: concentration at 5 h
Answer with the value and then the unit.

// sample COc1ccc(-c2nsc(C)c2C(=O)/N=C(\N)NCc2cc(C)c(NC(=O)CN3CCC3)c(Cl)c2)cc1 , its concentration at 5 h was 1170 nM
